- Tested on: U2OS
- procedure_text: Multiplex assay against U2OS
- Assay type: toxicity, cell-based
- applied_conditions: human, 24 h, 10 µM, compound concentration 10 uM, replicate 2
For each entry below, report its Population Apoptotic (%) value.
// units = %; emit number, no label

Item O=C(NCCNCC(O)COc1ccc(O)cc1)N1CCOCC1.O=C(NCCNCC(O)COc1ccc(O)cc1)N1CCOCC1.O=C(O)/C=C/C(=O)O (stereo not drawn) [XAMOTEROL FUMARATE] : provide Population Apoptotic (%)
78

Item "S=C(NCCCc1c[nH]cn1)NCCCN(Cc1ccc(Cl)c(Cl)c1)c1ccc(Br)cn1" : provide Population Apoptotic (%)
60

Item CCn1c(-c2nc3cc(C(=O)N4CCCC(N)C4)ccc3n2C)cc2ccccc21.Cl (stereo not drawn) : provide Population Apoptotic (%)
73

Item Cc1c(Cc2ccc3ccccc3n2)c2cc(F)ccc2n1CC(=O)O [TIMAPIPRANT] : provide Population Apoptotic (%)
72

Item "Cc1cc(O)c(-c2ccc([C@@H](C)CN(C)C)cc2)c2c1[nH]c(=O)c1sccc12" : provide Population Apoptotic (%)
82

Item "Cc1sc2c(c1C)C(c1ccc(Cl)cc1)=N[C@H](CC(=O)OC(C)(C)C)c1nnc(C)n1-2" : provide Population Apoptotic (%)
76

Item "COc1cc2nc(N3CCN(C(=O)COc4c(OC)cccc4C(C)C)CC3)nc(N)c2cc1OC.Cl.Cl" : provide Population Apoptotic (%)
87

Item "C[C@@H]1CC(=O)Nc2cccc(-c3ccc4c(c3)c(-c3cnn(C)c3)nn4C)c2N1" : provide Population Apoptotic (%)
83

----------
For each entry below, report its Population Healthy Nuclei (%) value.
- Tested on: HEK-293T
- procedure_text: Multiplex assay against HEK293T
- Type: toxicity, cell-based
- applied_conditions: human, 48 h, 1 µM, compound concentration 1 uM, replicate 1
Non-standard residues stand in square brackets, D forms with d. Residues, ends and D or L forms follow the SMILES beside them.
// units = %; emit number, no label

Item CCn1c(-c2nc3cc(C(=O)N4CCCC(N)C4)ccc3n2C)cc2ccccc21.Cl (centres undefined) : provide Population Healthy Nuclei (%)
79

Item CC(C)C[C@@H]1NC(=O)[C@@H](C(C)C)NC(=O)[C@@H]2CCCN2C(=O)[C@@H](CC(=O)O)NC(=O)[C@@H](Cc2c[nH]c3ccccc23)NC1=O [BQ-123] (cyclo(L[dW][dD]P[dV])) : provide Population Healthy Nuclei (%)
79

Item COCCCN1CCC(NC(=O)c2cc(Cl)c(N)c3c2OCC3)CC1 [PRUCALOPRIDE] : provide Population Healthy Nuclei (%)
76

Item COc1cc2nc(N3CCN(C(=O)c4ccco4)CC3)nc(N)c2cc1OC.Cl [PRAZOSIN HYDROCHLORIDE] : provide Population Healthy Nuclei (%)
76

Item Cl.Cl.OCCOCCN1CCN(C(c2ccccc2)c2ccc(Cl)cc2)CC1 (centres undefined) [HYDROXYZINE HYDROCHLORIDE] : provide Population Healthy Nuclei (%)
79

Item "CCCCC[C@H](O)/C=C/[C@H]1[C@H](O)CC(=O)[C@@H]1CCCCCCC(=O)O" : provide Population Healthy Nuclei (%)
79

Item "Cc1cc(=O)n(C)c2cc(N3C(=O)CC[C@H](NS(=O)(=O)CC(C)C)[C@H]3c3ccc(Cl)cc3)ccc12" : provide Population Healthy Nuclei (%)
78

Item "S=C(NCCCc1c[nH]cn1)NCCCN(Cc1ccc(Cl)c(Cl)c1)c1ccc(Br)cn1" : provide Population Healthy Nuclei (%)
65

Item "C[C@H](NC(=O)CNC(=O)c1cccc(Cl)c1)c1ccccc1" : provide Population Healthy Nuclei (%)
80

----------
- Tested on: Fibroblast
- procedure_text: Multiplex assay against human fibroblast
- Type: toxicity, cell-based
- applied_conditions: 24 h, 10 µM, compound concentration 10 uM, replicate 2
Non-standard residues stand in square brackets, D forms with d. Residues, ends and D or L forms follow the SMILES beside them.
Label t when Population Membrane Permeable-Phenotype (%) is at or above 4%; anything below gets f.

Dear colleague, could you confirm whether "Nc1nc(-c2ccco2)c2cnn(Cc3ccccc3F)c2n1" has Population Membrane Permeable-Phenotype (%) at or above 4%?
t

Dear colleague, could you confirm whether "CCc1nn2c(C)cc(C)nc2c1Cc1ccc(-c2nnc(C3CCNCC3)o2)cc1" has Population Membrane Permeable-Phenotype (%) at or above 4%?
t

Dear colleague, could you confirm whether COC(c1ccccc1)(c1ccccc1)[C@H](Oc1nc(C)cc(C)n1)C(=O)O [AMBRISENTAN] has Population Membrane Permeable-Phenotype (%) at or above 4%?
t

Dear colleague, could you confirm whether CCC(=O)OCC(=O)[C@@]1(OC(=O)CC)[C@@H](C)C[C@H]2[C@@H]3CCC4=CC(=O)C=C[C@]4(C)[C@@]3(Cl)[C@@H](O)C[C@@]21C [BECLOMETHASONE DIPROPIONATE] has Population Membrane Permeable-Phenotype (%) at or above 4%?
t

Dear colleague, could you confirm whether COc1ccc2[nH]c(I)c(CCNC(C)=O)c2c1 [IODOMELATONIN] has Population Membrane Permeable-Phenotype (%) at or above 4%?
t

Dear colleague, could you confirm whether "Cc1cc(=O)n(C)c2cc(N3C(=O)CC[C@H](NS(=O)(=O)CC(C)C)[C@H]3c3ccc(Cl)cc3)ccc12" has Population Membrane Permeable-Phenotype (%) at or above 4%?
t

Dear colleague, could you confirm whether O=C(O)CCC/C=C\CC1C(O)CC(O)C1/C=C/C(O)COc1cccc(Cl)c1 (configuration not stated) [CLOPROSTENOL] has Population Membrane Permeable-Phenotype (%) at or above 4%?
t

Dear colleague, could you confirm whether COCCCN1CCC(NC(=O)c2cc(Cl)c(N)c3c2OCC3)CC1 [PRUCALOPRIDE] has Population Membrane Permeable-Phenotype (%) at or above 4%?
t

Dear colleague, could you confirm whether COc1cc2nc(N3CCN(C(=O)c4ccco4)CC3)nc(N)c2cc1OC.Cl [PRAZOSIN HYDROCHLORIDE] has Population Membrane Permeable-Phenotype (%) at or above 4%?
t

Dear colleague, could you confirm whether CC(C)(C)c1ccc(CSc2cnn(C(C)(C)C)c(=O)c2Cl)cc1 [PYRIDABEN] has Population Membrane Permeable-Phenotype (%) at or above 4%?
t

Dear colleague, could you confirm whether CN1C[C@H](C(=O)N[C@]2(C)O[C@@]3(O)[C@@H]4CCCN4C(=O)[C@H](Cc4ccccc4)N3C2=O)C[C@@H]2c3cccc4[nH]cc(c34)C[C@H]21.CS(=O)(=O)O [DIHYDROERGOTAMINE MESYLATE] has Population Membrane Permeable-Phenotype (%) at or above 4%?
t

Dear colleague, could you confirm whether CCn1c(-c2nc3cc(C(=O)N4CCCC(N)C4)ccc3n2C)cc2ccccc21.Cl (configuration not stated) has Population Membrane Permeable-Phenotype (%) at or above 4%?
f

Dear colleague, could you confirm whether C=CCN1C[C@H](C(=O)N(CCCN(C)C)C(=O)NCC)C[C@@H]2c3cccc4[nH]cc(c34)C[C@H]21 [CABERGOLINE] has Population Membrane Permeable-Phenotype (%) at or above 4%?
f

Dear colleague, could you confirm whether COc1cc(Nc2ncc3c(n2)-c2ccc(Cl)cc2C(c2c(F)cccc2OC)=NC3)ccc1C(=O)O [ALISERTIB] has Population Membrane Permeable-Phenotype (%) at or above 4%?
f

Dear colleague, could you confirm whether CN1CCN2c3ccccc3Cc3ccccc3C2C1.Cl (configuration not stated) [MIANSERIN HYDROCHLORIDE] has Population Membrane Permeable-Phenotype (%) at or above 4%?
t

Dear colleague, could you confirm whether "Cc1cc(O)c(-c2ccc([C@@H](C)CN(C)C)cc2)c2c1[nH]c(=O)c1sccc12" has Population Membrane Permeable-Phenotype (%) at or above 4%?
f

Dear colleague, could you confirm whether O=C(NCCNCC(O)COc1ccc(O)cc1)N1CCOCC1.O=C(NCCNCC(O)COc1ccc(O)cc1)N1CCOCC1.O=C(O)/C=C/C(=O)O (configuration not stated) [XAMOTEROL FUMARATE] has Population Membrane Permeable-Phenotype (%) at or above 4%?
t

Dear colleague, could you confirm whether CCCCCCNC(=O)Nc1ccc(S(=O)(=O)Nc2ccc(CCNC[C@H](O)COc3ccc(O)cc3)cc2)cc1 [L-755507] has Population Membrane Permeable-Phenotype (%) at or above 4%?
f

Dear colleague, could you confirm whether "C[C@@H]1CC(=O)Nc2cccc(-c3ccc4c(c3)c(-c3cnn(C)c3)nn4C)c2N1" has Population Membrane Permeable-Phenotype (%) at or above 4%?
f

Dear colleague, could you confirm whether Cc1cc(-c2ccc3c(c2)CC[C@H]3N2CC3(CCN(C(=O)Cc4cn5cc(C)sc5n4)CC3)C2)ncn1 [PF-5190457] has Population Membrane Permeable-Phenotype (%) at or above 4%?
f

Dear colleague, could you confirm whether CC(C)C[C@@H]1NC(=O)[C@@H](C(C)C)NC(=O)[C@@H]2CCCN2C(=O)[C@@H](CC(=O)O)NC(=O)[C@@H](Cc2c[nH]c3ccccc23)NC1=O [BQ-123] (cyclo(L[dW][dD]P[dV])) has Population Membrane Permeable-Phenotype (%) at or above 4%?
t

Dear colleague, could you confirm whether "S=C(NCCCc1c[nH]cn1)NCCCN(Cc1ccc(Cl)c(Cl)c1)c1ccc(Br)cn1" has Population Membrane Permeable-Phenotype (%) at or above 4%?
f

Dear colleague, could you confirm whether "CN1CCN(c2ccc(Nc3c4ccccc4nc4ccccc34)cc2)CC1.Cl.Cl.O" has Population Membrane Permeable-Phenotype (%) at or above 4%?
t

Dear colleague, could you confirm whether CC(C)C[C@H](CO)Nc1nc(S[C@@H](C)c2ccccc2)nc2nc(N)sc12 [AZD-8797] has Population Membrane Permeable-Phenotype (%) at or above 4%?
t

Dear colleague, could you confirm whether CSc1nc(NC2CCCC2)c([N+](=O)[O-])c(NC2CCCC2)n1 [GS-39783] has Population Membrane Permeable-Phenotype (%) at or above 4%?
t

Dear colleague, could you confirm whether CCCCC[C@H](O)/C=C/[C@H]1[C@H](O)CC(=O)[C@@H]1CCCCCCC(=O)O [ALPROSTADIL] has Population Membrane Permeable-Phenotype (%) at or above 4%?
t

Dear colleague, could you confirm whether "CN(C)C(=O)Cn1cc(-c2ccc(-c3nnc4ccccn34)cc2)cn1" has Population Membrane Permeable-Phenotype (%) at or above 4%?
t

Dear colleague, could you confirm whether Cc1c(Cc2ccc3ccccc3n2)c2cc(F)ccc2n1CC(=O)O [TIMAPIPRANT] has Population Membrane Permeable-Phenotype (%) at or above 4%?
f

Dear colleague, could you confirm whether Cc1cc(NC(=O)NCCN2CCC(O)(Cc3ccccc3)CC2)c2ccccc2n1 [PALOSURAN] has Population Membrane Permeable-Phenotype (%) at or above 4%?
f
